- Protocol Notes: PK, tissue distribution, excretion and metabolism of compound 109 in mice
- Assay type: in vivo
- Applied Conditions: mouse, in vivo, po, 25 mg/kg
Observed Property: Cmax (ng/mL)
Numbers only here, please. The scale is ng/mL.

Query string: # lookup: Cmax of CC(C)=CCC/C(C)=C/CNCCNC1C2CC3CC(C2)CC1C3 (stereo not shown) [Compound 109]
Result string: 135

----------
- Protocol Notes: PK, tissue distribution, excretion and metabolism of compound 109 in mice
- Assay type: in vivo
- Applied Conditions: mouse, in vivo, po, 25 mg/kg
Observed Property: Tmax (min)
Numbers only here, please. The scale is min.

Query string: # lookup: Tmax of CC(C)=CCC/C(C)=C/CNCCNC1C2CC3CC(C2)CC1C3 (stereo not shown)
Result string: 18.6
